# System: K-562 leukemia
# assayInfo: NCI tumour cell line growth inhibition, 48 h; in the data active = GI50 below about 0.43 µM; inactive = the rest
Give one outcome, nothing more. List: active, inactive

Worked examples, 6 molecules total:
COc1cc(-c2nc(SCC(=O)Nc3ccc(C(C)=O)cc3)[nH]c(=O)c2C#N)cc(OC)c1OC = inactive
CN1CCN(Cc2ccc(NC(=O)c3[nH]ncc3Nc3ncnc4sccc34)cc2)CC1 = active
O=C1/C(=C/c2ccc([N+](=O)[O-])s2)Oc2ccccc21 = active
O=C(c1ccco1)c1c(C(F)(F)F)nc2cc(C(F)(F)F)ccc2[n+]1[O-] = inactive
COc1ccc2[nH]c(-c3cccc(N(C)C)c3)cc(=O)c2c1 = active
CCCCN(CCCC)CC(C)(C)C(O)c1ccc(OC)c2ccccc12 (stereo unspecified) = inactive

Note: attention shifts to another entry.
Problem: Outcome? Cc1[nH]nc2c1N=C(c1ccccc1F)c1cc(C#N)ccc1N2
Solution: active

###

# Tested on: OVCAR-3 ovarian
# assayInfo: NCI tumour cell line growth inhibition, 48 h
Items are presented alongside their recorded TGI.

CC(C)(C)C1CCC2(CC1)CCN(CCCN1CCOCC1)CC2 = > 100 µM

Problem: Identify the reported TGI for the following entry. CCc1ccccc1-n1c2nc(=O)n(C)c(=O)c-2nc2ccccc21
Solution: 6.79 µM

Problem: Identify the reported TGI for the following entry. Oc1ccc(Br)cc1/C=N/NC(=S)NC12CC3CC(CC(C3)C1)C2
Solution: 3.71 µM

Problem: Identify the reported TGI for the following entry. CC1=CC2(O)OC3(CC2=C(C)C)C(C)CCC13 (stereo unspecified)
Solution: > 100 µM

###

Items are presented alongside their recorded TGI.
# Test system: MDA-MB-435
# assayInfo: NCI tumour cell line growth inhibition, 48 h
Express the result in µM but write the number alone.

These recorded examples may help you get a feel for the data.
C=CCNC(=O)/C(Cc1cc(Br)c(OC)c(Br)c1O)=N\O = 2.69
COc1ccccc1CNC(=O)C1c2ccccc2C(=O)N(CC(C)C)C1c1cccs1 (stereo not given) = 39.3
Cc1c2ncccc2nc2[nH]c3ccc(OCCN(C)C)cc3c12 = 15.7
COc1cccc(Cn2cc3c(c2)-c2oncc2CC3)c1 = 0.327
CCOC(=O)C1=C(C)N(C)C(=S)NC1c1cccc(O)c1 (stereo not given) = 34.9

Problem: Identify the reported TGI for the following entry. O=C(NCCN1CCOCC1)Nc1ccc(-c2cc3c(Nc4ccc(Oc5cccc(C(F)(F)F)c5)c(Cl)c4)ncnc3s2)cc1
Solution: 2

Problem: Identify the reported TGI for the following entry. O=C1/C(=C/c2ccc([N+](=O)[O-])s2)Oc2ccccc21
Solution: 3.17

Problem: Identify the reported TGI for the following entry. CC(C)C[C@H](NC(=O)CCc1ccccc1)B(O)O
Solution: 7.79

Problem: Identify the reported TGI for the following entry. CC(F)(F)c1cc(F)ccc1-c1sc2cc(O)ccc2c1Oc1ccc(/C=C/C(=O)O)cc1
Solution: 5.51

###

# System: KM20L2 colon
# assayInfo: NCI tumour cell line growth inhibition, 48 h
reportedMetric: TGI

These recorded examples may help you get a feel for the data.
COc1ccc(CCNCc2cccc(OC)c2OC)cc1OC = > 100 µM
O=C1OC(c2ccccc2)=N/C1=C\c1c(O)cc(O)cc1O = > 100 µM
O=C(CCCNC(=O)OCc1ccccc1)OCc1ccc2c(c1)C(=O)c1ccccc1C2=O = > 100 µM
CN(C)CCNC(=O)c1cccc2nc3c4ccccc4c4ccccc4c3nc12 = 10.3 µM
CN(C)CCCSc1c2ccccc2nc2cc(NCC(=O)Nc3ccccc3-c3ccccc3NC(=O)CNc3ccc4c(SCCCN(C)C)c5ccccc5nc4c3)ccc12 = > 100 µM

Problem: Consider the compound O=C(CCC(=O)N/N=C/c1ccccc1O)N/N=C/c1ccccc1O tested on KM20L2 colon; state its TGI.
Solution: > 100 µM

Problem: Consider the compound CC(C)CC(CNC(Cc1ccc(Cl)cc1)C(N)=O)NC(=O)C(Cc1cnc[nH]1)NC(=O)CNC(=O)C(NC(=O)C(C)NC(=O)C(Cc1c[nH]c2ccccc12)NC(=O)C(CCC(=O)O)NC(=O)C(N)Cc1ccccc1)C(C)C (configuration not stated) tested on KM20L2 colon; state its TGI.
Solution: > 133 µM

Problem: Consider the compound CCc1ccc(/C(C)=N/NC(N)=S)cc1 tested on KM20L2 colon; state its TGI.
Solution: > 100 µM
